Reference source: paper PMC5404542

# system name: AfCYP51B (Aspergillus fumigatus)
# Construct: made in house
# procedure details: A. fumigatus CYP51 binding assay (ligand titration, type II difference spectra)
# measurement context: Kd2, AfCYP51B, 4 μM purified AfCYP51B; modified two-site allosteric model
measured metric: Kd (µM)

In [3]: df
Out[3]:
                                   molecule  measured_metric  assay_result
0  Cc1cc(N2CCN(c3ccc(C(=O)Nc4ccc(F)cc4)cc3)CC2)ccc1OC[C@@H]1CO[C@@](Cn2cncn2)(c2ccc(F)cc2F)C1 [PC945]               Kd          0.32

====

The following are reported Ki results, target or system AfCYP51B (Aspergillus fumigatus).
measured metric: Ki

>>> print(df.to_string())
                                smiles_text                       system_name  assay_result
0  Cc1cc(N2CCN(c3ccc(C(=O)Nc4ccc(F)cc4)cc3)CC2)ccc1OC[C@@H]1CO[C@@](Cn2cncn2)(c2ccc(F)cc2F)C1  AfCYP51B (Aspergillus fumigatus)        < 1 nM
1  CC[C@@H]([C@H](C)O)n1ncn(-c2ccc(N3CCN(c4ccc(OC[C@@H]5CO[C@@](Cn6cncn6)(c6ccc(F)cc6F)C5)cc4)CC3)cc2)c1=O  AfCYP51B (Aspergillus fumigatus)        < 1 nM

====

Some compounds, each annotated with its measured pIC50.
# system name: AfCYP51B (Aspergillus fumigatus, UniProt E9QY26)
# Sequence (E9QY26 1-524): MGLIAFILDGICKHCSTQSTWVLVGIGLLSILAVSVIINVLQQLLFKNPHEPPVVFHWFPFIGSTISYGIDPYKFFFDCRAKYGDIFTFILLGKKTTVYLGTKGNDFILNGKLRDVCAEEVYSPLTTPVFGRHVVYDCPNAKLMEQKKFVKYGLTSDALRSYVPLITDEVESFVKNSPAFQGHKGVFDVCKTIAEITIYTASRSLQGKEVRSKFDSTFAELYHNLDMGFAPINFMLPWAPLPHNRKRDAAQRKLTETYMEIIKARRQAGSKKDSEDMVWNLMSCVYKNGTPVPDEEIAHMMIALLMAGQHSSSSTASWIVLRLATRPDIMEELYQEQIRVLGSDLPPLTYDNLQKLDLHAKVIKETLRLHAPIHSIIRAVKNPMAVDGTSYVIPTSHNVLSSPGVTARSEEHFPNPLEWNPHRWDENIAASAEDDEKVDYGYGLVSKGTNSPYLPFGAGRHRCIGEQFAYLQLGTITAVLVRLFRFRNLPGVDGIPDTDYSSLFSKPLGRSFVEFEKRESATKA
pIC50: −log10 of the molar value.
measured metric: pIC50

                                smiles_text  measured_metric  assay_result
0  CC[C@@H]([C@H](C)O)n1ncn(-c2ccc(N3CCN(c4ccc(OC[C@@H]5CO[C@@](Cn6cncn6)(c6ccc(F)cc6F)C5)cc4)CC3)cc2)c1=O            pIC50          6.77
1  Cc1cc(N2CCN(c3ccc(C(=O)Nc4ccc(F)cc4)cc3)CC2)ccc1OC[C@@H]1CO[C@@](Cn2cncn2)(c2ccc(F)cc2F)C1            pIC50          6.66

====

# system name: AfCYP51B (Aspergillus fumigatus)
# Construct: made in house
# procedure details: A. fumigatus CYP51 binding assay (ligand titration, type II difference spectra)
# measurement context: Kd1, AfCYP51B, 4 μM purified AfCYP51B; PC945: modified two-site allosteric model; posaconazole: single tight-binding Kd
pKd: −log10 of the molar value.
measured metric: pKd

                                smiles_text  assay_result
0  CC[C@@H]([C@H](C)O)n1ncn(-c2ccc(N3CCN(c4ccc(OC[C@@H]5CO[C@@](Cn6cncn6)(c6ccc(F)cc6F)C5)cc4)CC3)cc2)c1=O          7.92

====

// reported pIC50 per item
# system name: AfCYP51A (Aspergillus fumigatus)
# Sequence (Q4WNT5 whole entry): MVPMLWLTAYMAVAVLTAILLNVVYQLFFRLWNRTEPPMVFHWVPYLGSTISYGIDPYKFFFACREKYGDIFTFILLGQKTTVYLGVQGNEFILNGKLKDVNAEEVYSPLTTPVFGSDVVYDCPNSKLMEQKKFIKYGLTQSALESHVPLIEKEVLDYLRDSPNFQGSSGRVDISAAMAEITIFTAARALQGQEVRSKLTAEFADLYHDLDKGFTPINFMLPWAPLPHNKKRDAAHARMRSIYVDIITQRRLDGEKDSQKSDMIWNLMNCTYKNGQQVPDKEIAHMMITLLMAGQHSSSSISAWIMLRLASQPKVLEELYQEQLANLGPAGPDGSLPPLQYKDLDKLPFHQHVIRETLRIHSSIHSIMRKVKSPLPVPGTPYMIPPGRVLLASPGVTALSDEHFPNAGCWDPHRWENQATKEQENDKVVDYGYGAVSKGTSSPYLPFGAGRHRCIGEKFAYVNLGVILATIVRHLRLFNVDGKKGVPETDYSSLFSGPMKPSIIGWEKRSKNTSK
pIC50: −log10 of the molar value.
measured metric: pIC50

In [3]: df
Out[3]:
                                smiles_text  assay_result
0  CC[C@@H]([C@H](C)O)n1ncn(-c2ccc(N3CCN(c4ccc(OC[C@@H]5CO[C@@](Cn6cncn6)(c6ccc(F)cc6F)C5)cc4)CC3)cc2)c1=O          6.80
1  Cc1cc(N2CCN(c3ccc(C(=O)Nc4ccc(F)cc4)cc3)CC2)ccc1OC[C@@H]1CO[C@@](Cn2cncn2)(c2ccc(F)cc2F)C1          6.64
